# System Tested: Full length (FL) 3-Phosphoglycerate Dehydrogenase (PHGDH) (Homo sapiens, UniProt O43175)
# Construct: Full length (FL) 3-Phosphoglycerate Dehydrogenase (PHGDH) Diaphorase coupled assay (500 uM NAD)
# Test: Full length (FL) PHGDH Diaphorase coupled assay (20 uM NAD)
# Assay type: biochemical
# Applied Conditions: 10 nM PHGDH, 30° C., 60 minutes, read-out: FL Diaphorase 20 μM NAD (PHGDH activity inhibition, IC50)
Measured IC50 by item

Some solved entries appear below for comparison.
[[record]]
compound = "CC(=O)NS(=O)(=O)N(C)CCCNC(=O)c1cc2c(Cl)c(Cl)ccc2n1C"
measured = "5000 to 10000 nM"

[[record]]
compound = "Cn1c(C(=O)NC(C)(C)CC(N)=O)cc2c(Cl)c(Cl)ccc21"
measured = "> 10000 nM"

[[record]]
compound = "CC(=O)NS(=O)(=O)NCCC(NC(=O)c1cc2c(Cl)c(Cl)ccc2n1C)c1ccccc1 (racemic)"
measured = "1000 to 5000 nM"


Record request: IC50 value, item Cn1c(C(=O)NC(CN)c2ccc(C(=O)O)cc2)cc2c(Cl)c(Cl)ccc21 (racemic)
10 to 1000 nM

Subsequent entry: CC(=O)NS(=O)(=O)NCCC(NC(=O)c1cc2c(Cl)c(Cl)ccc2n1C)c1cccc(CO)c1 (racemic)
1000 to 5000 nM

Do the same for CC(=O)NS(=O)(=O)NCCC(NC(=O)c1cc2c(Cl)c(Cl)ccc2n1C)c1cccc(C(=O)O)c1 (racemic) please
10 to 1000 nM

Now consider CC(=O)NS(=O)(=O)NCCC(NC(=O)c1cc2c(Cl)c(Cl)ccc2n1C)c1ccc(C(=O)O)cc1 (stereo not drawn) and answer again.
10 to 1000 nM

And for "CC(=O)NS(=O)(=O)NCCCNC(=O)c1cc2c(Cl)c(Cl)ccc2n1C" ?
1000 to 5000 nM

Would you kindly repeat that for CC(=O)NS(=O)(=O)N(C)CCC(NC(=O)c1cc2c(Cl)c(Cl)ccc2n1C)c1ccc(C(=O)O)cc1 (racemic) ?
10 to 1000 nM

----------
# System Tested: Full length (FL) 3-Phosphoglycerate Dehydrogenase (PHGDH) (Homo sapiens, UniProt O43175)
# Construct: Full length (FL) 3-Phosphoglycerate Dehydrogenase (PHGDH) Diaphorase coupled assay (500 uM NAD)
# Sequence (O43175 1-533): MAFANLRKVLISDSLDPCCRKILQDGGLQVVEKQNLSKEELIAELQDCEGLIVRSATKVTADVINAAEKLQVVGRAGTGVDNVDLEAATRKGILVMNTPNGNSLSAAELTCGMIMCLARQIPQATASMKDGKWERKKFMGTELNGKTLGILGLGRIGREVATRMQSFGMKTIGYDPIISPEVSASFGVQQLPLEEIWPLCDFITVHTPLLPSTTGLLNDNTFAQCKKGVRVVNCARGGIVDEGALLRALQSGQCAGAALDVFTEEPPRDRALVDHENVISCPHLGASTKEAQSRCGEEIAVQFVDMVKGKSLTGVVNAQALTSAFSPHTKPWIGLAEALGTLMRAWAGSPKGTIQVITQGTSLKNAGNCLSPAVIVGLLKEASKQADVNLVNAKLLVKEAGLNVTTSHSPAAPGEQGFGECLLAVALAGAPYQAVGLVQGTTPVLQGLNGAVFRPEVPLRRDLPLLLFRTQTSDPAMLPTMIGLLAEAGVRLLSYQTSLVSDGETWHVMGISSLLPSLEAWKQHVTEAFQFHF
# Test: Full length (FL) PHGDH Diaphorase coupled assay (500 uM NAD)
# Format: biochemical
# Applied Conditions: read-out: FL Diaphorase 500 μM NAD (PHGDH activity inhibition, IC50), 5 nM PHGDH, 30° C., 60 minutes
Experimental Readout: IC50

Tell me the measured IC50 of CC(C)C(C(=O)O)c1ccc([C@@H](CO)NC(=O)c2cc3c(Cl)c(Cl)ccc3n2C)cc1 (single isomer, unassigned) , please.
10 to 1000 nM
